# target.or.system: PRMT5-MTA (Homo sapiens)
# Sequence (O14744 whole entry): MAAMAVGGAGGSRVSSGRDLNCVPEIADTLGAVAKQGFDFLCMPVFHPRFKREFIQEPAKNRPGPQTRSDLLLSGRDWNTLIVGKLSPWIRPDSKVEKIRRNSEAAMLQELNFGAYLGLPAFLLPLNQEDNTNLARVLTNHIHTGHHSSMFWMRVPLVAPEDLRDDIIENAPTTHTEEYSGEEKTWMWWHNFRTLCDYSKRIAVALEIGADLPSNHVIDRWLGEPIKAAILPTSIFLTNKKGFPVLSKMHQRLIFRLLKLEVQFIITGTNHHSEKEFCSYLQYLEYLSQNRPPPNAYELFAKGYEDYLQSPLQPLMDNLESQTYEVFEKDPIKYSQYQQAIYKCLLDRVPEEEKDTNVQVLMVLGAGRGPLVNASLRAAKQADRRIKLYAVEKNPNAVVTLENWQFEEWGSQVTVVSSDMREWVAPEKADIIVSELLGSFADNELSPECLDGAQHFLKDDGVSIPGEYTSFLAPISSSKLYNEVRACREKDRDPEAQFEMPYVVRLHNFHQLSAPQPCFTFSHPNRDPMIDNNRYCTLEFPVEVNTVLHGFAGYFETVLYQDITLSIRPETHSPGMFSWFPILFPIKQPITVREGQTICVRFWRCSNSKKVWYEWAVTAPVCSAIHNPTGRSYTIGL
# Sequence (Q9BQA1 whole entry partner): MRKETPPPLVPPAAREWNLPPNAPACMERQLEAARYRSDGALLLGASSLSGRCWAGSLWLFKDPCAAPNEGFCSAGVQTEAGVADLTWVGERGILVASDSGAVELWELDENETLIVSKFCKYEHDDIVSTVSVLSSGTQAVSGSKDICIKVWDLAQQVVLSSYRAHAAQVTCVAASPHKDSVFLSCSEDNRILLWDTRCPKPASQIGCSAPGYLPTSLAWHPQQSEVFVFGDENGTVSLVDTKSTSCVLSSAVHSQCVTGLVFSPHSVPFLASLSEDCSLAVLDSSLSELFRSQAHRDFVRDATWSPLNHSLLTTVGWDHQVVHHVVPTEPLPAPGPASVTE
# test.method.notes: Enzymatic inhibitory activity against PRMT5-MTA (AlphaScreen)
# Format: biochemical
# assay.setup: read-out: IC50
parameter: pIC50
Lab note: report pIC50 as minus log10 of the concentration in molar units, number only.

Entry CC1CN(C(=O)c2cc3c(cc2Cl)nc(N)c2cnn(C)c23)N(c2cccc(F)c2F)C1 (stereo not shown) has what pIC50?
8.19

Entry Cc1cc2cc(C(=O)N(Cc3ccc(C(F)(F)F)cn3)n3c(=O)n(C)c4cccnc43)ccc2nc1N has what pIC50?
8.64

Entry Cc1nc(C)c(-c2ccc(CN(C(=O)c3ccc4nc(N)c(C)cc4c3)N(c3ncccn3)C3CC3)nc2)s1 has what pIC50?
8.35

Entry Cc1cc2cc(C(=O)N(Cc3ccc(-c4cncs4)cn3)N(c3ncccn3)C3CC3)ccc2nc1N has what pIC50?
8.28

Entry Cc1cc2cc(C(=O)N(Cc3ccc(C(F)(F)F)cn3)N(C)c3cnccn3)ccc2nc1N has what pIC50?
8.82

Entry Cc1cc2cc(C(=O)N(Cc3ccc(C4CCOC4)cn3)N(C)c3ncccn3)ccc2nc1N (stereo not shown) has what pIC50?
8.54

Entry COC1CN(C(=O)c2cc3c(cc2C)nc(N)c2cnn(C)c23)N(c2cc(F)ccc2F)C1 (stereo not shown) has what pIC50?
8.19

Entry Cc1cc2cc(C(=O)N(Cc3ccc(C4=CCNCC4)cn3)N(C)c3ncccn3)ccc2nc1N has what pIC50?
8.07

Entry C=C(C)c1cccnc1N(C)N(Cc1ccc(C(F)(F)F)cn1)C(=O)c1ccc2nc(N)c(C)cc2c1 has what pIC50?
8.49

Entry Cc1cc2nc(N)c3cnn(C)c3c2cc1C(=O)N1CC(C)CN1c1ccc(OC(F)(F)F)cn1 (stereo not shown) has what pIC50?
8.39

Entry Cc1ncc(-c2ccc(CN(C(=O)c3ccc4nc(N)c(C)cc4c3)N(C)c3ncccn3)nc2)s1 has what pIC50?
8.19

Entry Cc1cc2cc(C(=O)N(Cc3ccc(C(F)(F)F)cn3)N(C)c3nccc(C(F)(F)F)n3)ccc2nc1N has what pIC50?
8.77

Entry Cn1ncc2c(N)nc3cc(Cl)c(C(=O)N4CC(F)(F)CN4c4ncccc4F)cc3c21 has what pIC50?
8.33

Entry Cc1cc2nc(N)c3cnn(C)c3c2cc1C(=O)N1CC(C)CN1c1ccc(F)cn1 (stereo not shown) has what pIC50?
8.44

Entry Cc1cc2cc(C(=O)N(Cc3ccc(C4(F)COC4)cn3)N(C)c3ncccn3)ccc2nc1N has what pIC50?
8.57

Entry Cc1ncc(-c2cnc(N3CC(C)CN3C(=O)c3cc4c(cc3C)nc(N)c3cnn(C)c34)c(F)c2)cn1 (stereo not shown) has what pIC50?
8.33

Entry Cc1cc2nc(N)c3cnn(C)c3c2cc1C(=O)N1CC2(CC2)CN1c1ncccc1F has what pIC50?
8.10

Entry CCC1CN(C(=O)c2cc3c(cc2C)nc(N)c2cnn(C)c23)N(c2ncccc2F)C1 (stereo not shown) has what pIC50?
8.59

Entry Cc1ncsc1-c1ccc(CN(C(=O)c2cc3c(cc2F)nc(N)c2cnn(C)c23)N(c2ncccn2)C2CC2)nc1 has what pIC50?
8.21

Entry Cc1cc2nc(N)c3cnn(C)c3c2cc1C(=O)N1CC(C)CN1c1cnccn1 (stereo not shown) has what pIC50?
7.82

Entry Cc1cnc(N2CC(C)CN2C(=O)c2cc3c(cc2C)nc(N)c2cnn(C)c23)c(F)c1 (stereo not shown) has what pIC50?
8.29

Entry [2H]C([2H])([2H])c1cc2cc(C(=O)N(Cc3ccc(-c4sc(C)nc4C)cn3)N(c3ncccn3)C3CC3)ccc2nc1N has what pIC50?
8.19

Entry Cc1cc2nc(N)c3cnn(C)c3c2cc1C(=O)N1CC(C)(F)CN1c1ncccc1F (stereo not shown) has what pIC50?
8.03

Entry Cc1cc2cc(C(=O)N(Cc3ccc(C(F)(F)F)cn3)N(C)c3ncc(F)cn3)ccc2nc1N has what pIC50?
8.68

Entry Cc1cc2cc(C(=O)N(Cc3ccc(C#N)cn3)N(C)c3ncccn3)ccc2nc1N has what pIC50?
8.64

Entry Cc1cc2cc(C(=O)N(Cc3ccc(-c4cnn(C(F)(F)F)c4)cn3)N(c3ncccn3)C3CC3)ccc2nc1N has what pIC50?
8.48

Entry Cc1cc2nc(N)c3cnn(C)c3c2cc1C(=O)N1CC(C)CN1c1ncc(C#CCO)cc1F (stereo not shown) has what pIC50?
8.48

Entry Cc1cc2cc(C(=O)N(Cc3ccc(C(F)(F)F)cn3)N(C)c3ncc(Cl)cn3)ccc2nc1N has what pIC50?
8.62

Entry Cc1cc2nc(N)c3cnn(C)c3c2cc1C(=O)N1CC(C)CN1c1cncc(F)c1 (stereo not shown) has what pIC50?
8.43

Entry Cc1cc2cc(C(=O)N(Cc3ccc(P(C)(C)=O)cn3)N(C)c3ncccn3)ccc2nc1N has what pIC50?
8.19

Entry Cc1cc2nc(N)c3cnn(C)c3c2cc1C(=O)N1CC(C)CN1c1cccc(Cl)c1F (stereo not shown) has what pIC50?
8.22

----------
# System: HCT116 MTAP KO cells
# test.method.notes: Inhibitory activity against cell proliferation (CellTiter Glo, 6 days), HCT116 MTAP KO
# Format: cell-based
# assay.setup: ratio of IC50 HCT116-WT / HCT116 MTAP KO
# Protocol: HCT116-WT (ATCC, CCL-247) and HCT116 MTAP KO (Nanjing Cobioer, CBP75002) cells were seeded into white low-transparency sterile 96-well cell culture plates at a density of 250 cells per well respectively, and the culture medium was McCoy's 5A Medium+10% FBS. The plates were placed under the condition of 37°C and 5% CO2 to be cultured overnight. […] The IC50 values for inhibition of the compounds on cell viability were calculated in X1fit 5.0 software. […]
parameter: Selectivity HCT 116-WT/ HCT116 MTAP KO
Give a plain numeric answer without units written out.

Entry Cc1cc2nc(N)c3cnn(C)c3c2cc1C(=O)N1CC(O)(C(F)(F)F)CN1c1ncccc1F (stereo not drawn) [Example 355] has what Selectivity HCT 116-WT/ HCT116 MTAP KO?
32.00

Entry [2H]C([2H])([2H])c1cc2cc(C(=O)N(Cc3ccc(-c4cnn(C)c4)cn3)N(C)c3ncccn3)ccc2nc1N [Example 166] has what Selectivity HCT 116-WT/ HCT116 MTAP KO?
18.32

Entry Cc1cc2cc(C(=O)N(Cc3ccc(C(F)(F)F)cn3)N(C)c3nccc4c3ncn4C)ccc2nc1N [Example 265] has what Selectivity HCT 116-WT/ HCT116 MTAP KO?
14.45

Entry Cc1cc2cc(C(=O)N(Cc3ccc(-c4ccncc4)cn3)N(C)c3ncccn3)ccc2nc1N [Example 173] has what Selectivity HCT 116-WT/ HCT116 MTAP KO?
30.14

Entry Cn1ncc2c(N)nc3cc(Cl)c(C(=O)N4CC(F)(F)CN4c4ncc(F)cc4F)cc3c21 [Example 458] has what Selectivity HCT 116-WT/ HCT116 MTAP KO?
24.73

Entry Cc1cc2nc(N)c3cnn(C)c3c2cc1C(=O)N1CCCN1c1ncc(C2CCN(C)CC2)cc1F [Example 485] has what Selectivity HCT 116-WT/ HCT116 MTAP KO?
11.64

Entry Cc1cc2cc(C(=O)N(Cc3ccc(-c4ccc(C(F)(F)F)nc4)cn3)N(C)c3ncccn3)ccc2nc1N [Example 154] has what Selectivity HCT 116-WT/ HCT116 MTAP KO?
13.88

Entry Cc1cc2nc(N)c3cnn(C)c3c2cc1C(=O)N1CC(C)CN1c1ncccc1F (stereo not drawn) [Example 328] has what Selectivity HCT 116-WT/ HCT116 MTAP KO?
61.63

Entry Cc1cc2cc(C(=O)N(Cc3ccc(C(F)(F)F)cn3)N(C)c3ncccn3)ccc2nc1N [Example 1] has what Selectivity HCT 116-WT/ HCT116 MTAP KO?
19.47

Entry Cc1cc2cc(C(=O)N(Cc3ccc(-c4scnc4C)cn3)N(c3ncccn3)C3CC3)ccc2nc1N [Example 184] has what Selectivity HCT 116-WT/ HCT116 MTAP KO?
18.46

Entry Cn1ncc2c(N)nc3cc(Cl)c(C(=O)N4CC5(CC5)CN4c4ncc(Br)cc4F)cc3c21 [Example 345] has what Selectivity HCT 116-WT/ HCT116 MTAP KO?
17.57

Entry Cc1cc2cc(C(=O)N(Cc3ccc(C(F)(F)F)cn3)N(C)c3ncccn3)ncc2nc1N [Example 306] has what Selectivity HCT 116-WT/ HCT116 MTAP KO?
12.15

Entry [2H]C([2H])([2H])c1cc2cc(C(=O)N(Cc3ccc(-c4sc(C)nc4C)cn3)N(c3ncccn3)C3CC3)ccc2nc1N [Example 317] has what Selectivity HCT 116-WT/ HCT116 MTAP KO?
10.48

Entry COc1nc(C)ccc1-c1ccc(CN(C(=O)c2ccc3nc(N)c(C)cc3c2)N(C)c2ncccn2)nc1 [Example 137] has what Selectivity HCT 116-WT/ HCT116 MTAP KO?
18.07

Entry CCc1ncsc1-c1ccc(CN(C(=O)c2ccc3nc(N)c(C)cc3c2)N(C)c2ncccn2)nc1 [Example 241] has what Selectivity HCT 116-WT/ HCT116 MTAP KO?
18.27

Entry Cc1cc2nc(N)c3cnn(C)c3c2cc1C(=O)N1CC(C)CN1c1ncc(C2CC2)cc1F (stereo not drawn) [Example 489] has what Selectivity HCT 116-WT/ HCT116 MTAP KO?
26.04

Entry COc1cnc(N(C)N(Cc2ccc(C(F)(F)F)cn2)C(=O)c2ccc3nc(N)c(C)cc3c2)nc1 [Example 39] has what Selectivity HCT 116-WT/ HCT116 MTAP KO?
15.95

Entry C=C1CN(C(=O)c2cc3c(cc2Cl)nc(N)c2cnn(C)c23)N(c2ncc(Br)cc2F)C1 [Example 430] has what Selectivity HCT 116-WT/ HCT116 MTAP KO?
26.59

Entry Cc1cc2cc(C(=O)N(Cc3ccc(C4CC4)cn3)N(C)c3ncccc3C(F)(F)F)ccc2nc1N [Example 196] has what Selectivity HCT 116-WT/ HCT116 MTAP KO?
12.97

Entry Cc1cc2cc(C(=O)N(Cc3ccc(-c4scnc4C(F)F)cn3)N(c3ncccn3)C3CC3)ccc2nc1N [Example 239] has what Selectivity HCT 116-WT/ HCT116 MTAP KO?
18.64

Entry Cc1cc2cc(C(=O)N(Cc3ccc(-c4ccc(N5CCOCC5)nc4)cn3)N(C)c3ncccn3)ccc2nc1N [Example 176] has what Selectivity HCT 116-WT/ HCT116 MTAP KO?
17.49

Entry Cc1cc2cc(C(=O)N(Cc3ccc(-c4scnc4C4CC4)cn3)N(c3ncccn3)C3CC3)ccc2nc1N [Example 240] has what Selectivity HCT 116-WT/ HCT116 MTAP KO?
11.00

Entry Cc1cc2cc(C(=O)N(Cc3ccc(-c4cncs4)cn3)N(C)c3nccc4nccnc34)ccc2nc1N [Example 183] has what Selectivity HCT 116-WT/ HCT116 MTAP KO?
18.71

Entry Cc1cc2cc(C(=O)N(Cc3ccc(C(F)F)cn3)N(C)c3ncccn3)ccc2nc1N [Example 273] has what Selectivity HCT 116-WT/ HCT116 MTAP KO?
29.27

Entry [2H]C([2H])([2H])N(c1nccc2nccnc12)N(Cc1ccc(C(F)(F)F)cn1)C(=O)c1ccc2nc(N)c(C)cc2c1 [Example 62] has what Selectivity HCT 116-WT/ HCT116 MTAP KO?
17.42

Entry Cc1cc2nc(N)c3cnn(C)c3c2cc1C(=O)N1CC(C)CN1c1ncc(Br)cc1F (stereo not drawn) [Example 392] has what Selectivity HCT 116-WT/ HCT116 MTAP KO?
40.21

Entry Nc1nc2ccc(C(=O)N(Cc3ccc(C(F)(F)F)cn3)N(c3ncccn3)C3CC3)cc2cc1CO [Example 320] has what Selectivity HCT 116-WT/ HCT116 MTAP KO?
24.70

Entry CC1CN(C(=O)c2cc3c(cc2Cl)nc(N)c2cnn(C)c23)N(c2ccccc2F)C1 (stereo not drawn) [Example 386] has what Selectivity HCT 116-WT/ HCT116 MTAP KO?
25.85

Entry Cc1cc2cc(C(=O)N(Cc3ccc4ncccc4n3)N(C)c3ncccn3)ccc2nc1N [Compound 283] has what Selectivity HCT 116-WT/ HCT116 MTAP KO?
11.11

Entry Cc1cc2cc(C(=O)N(Cc3ccc(-c4ccc(N(C)CCN(C)C)nc4)cn3)N(C)c3ncccn3)ccc2nc1N [Example 260] has what Selectivity HCT 116-WT/ HCT116 MTAP KO?
22.14
